# protocol.description: Steady-state pharmacokinetics of momelotinib and metabolite GS-644603 (LC–MS/MS, noncompartmental)
# Type: in vivo, human
# test.conditions: human, in vivo, oral; momelotinib analyte; day 15 of cycle 1; momelotinib 200 mg QD + erlotinib; n = 2; median (Q1, Q3); read-out: Tmax
experimental.readout: Tmax (h)
Numbers only, in h.

Report Tmax for N#CCNC(=O)c1ccc(-c2ccnc(Nc3ccc(N4CCOCC4)cc3)n2)cc1
1.5

====

# protocol.description: Pharmacokinetics of erlotinib during monotherapy and in combination with momelotinib (LC–MS/MS)
# Type: in vivo, human
# test.conditions: human, in vivo, oral; erlotinib monotherapy, Day 1; dose level 1 cohort; erlotinib 150 mg QD (1 patient 100 mg QD); n = 3; mean (%CV); read-out: Cmax
experimental.readout: Cmax (ng/mL)
Numbers only, in ng/mL.

Report Cmax for C#Cc1cccc(Nc2ncnc3cc(OCCOC)c(OCCOC)cc23)c1
1810
